pIC50: −log10 of the molar value.
Endpoint summary: pIC50, system: UniProtKB P33261, multiple sources combined.
QUANTITY: pIC50

smiles_structure=Cc1cc(C(=O)Nc2ccc(F)c([C@]3(C)C=CSC(N)=N3)c2)n(C)n1 quantity=pIC50 measured_value="< 4.70"
smiles_structure=Clc1cnc2[nH]cc(Cc3cnc(NC4CCCCCC4)nc3)c2c1 quantity=pIC50 measured_value="< 5.00"
smiles_structure=Cc1cc(Nc2ncc(Cl)c(Nc3cn(C)nc3S(=O)(=O)C(C)C)n2)c(OC2CC2)cc1C1CCN(C2COC2)CC1 quantity=pIC50 measured_value="< 5.00"
smiles_structure=C[C@]1(c2cc(NC(=O)c3cnc(OCF)cn3)ccc2F)N=C(N)O[C@H](CF)[C@@H]1OCC(F)(F)F quantity=pIC50 measured_value="≤ 4.70"
smiles_structure=C[C@@H](c1ccc(-c2ccc(S(C)(=O)=O)cn2)cc1)N1CC[C@](CC(C)(C)O)(c2ccccc2)OC1=O quantity=pIC50 measured_value=4.31
smiles_structure=O=C(OCOC(=O)[C@H]1CCCN1C(=O)CCCCC(=O)N1CCC[C@@H]1C(=O)O)C1CCOCC1 quantity=pIC50 measured_value="< 4.48"
smiles_structure=Fc1nc(NC2CCC(F)(F)CC2)ccc1Cc1c[nH]c2ncc(Cl)cc12 quantity=pIC50 measured_value="> 5.30"
smiles_structure=C[C@H](C(=O)N[C@H](CO)c1ccc(F)c(Cl)c1)N1Cc2ccc(-c3nc(NC4CCOCC4)ncc3F)c(F)c2C1=O quantity=pIC50 measured_value="< 5.00"
smiles_structure=NC(=O)c1nc(-c2c(Cl)cccc2Cl)oc1Nc1ccc(C(=O)N2CCS(=O)(=O)CC2)cc1 quantity=pIC50 measured_value="< 4.52"
smiles_structure=CC[C@H]1SC(N)=N[C@](C)(c2cc(NC(=O)c3ccc(OCF)cn3)ccc2F)[C@H]1F quantity=pIC50 measured_value="≤ 4.70"
smiles_structure=COc1ccc(Nc2ccc(C(=O)c3c[nH]c4ncnc(NC(C)(C)C)c34)c(F)n2)cn1 quantity=pIC50 measured_value="> 5.00"
smiles_structure=C[C@@H](c1ccccc1-c1ccc(F)cc1)n1cncc1C(=O)N1CCC(N2CCC(O)CC2)CC1 quantity=pIC50 measured_value="< 5.00"
smiles_structure=N#Cc1ccc(-c2nn3c(c2NC(=O)CC(F)(F)F)C(=O)N[C@@]2(CCc4cc(OCC(F)(F)F)ccc42)C3)nc1 quantity=pIC50 measured_value="< 4.70"
smiles_structure=C[C@H]1SC(N)=N[C@](C)(c2cccc(NC(=O)c3cnc(C(F)F)cn3)c2)[C@H]1F quantity=pIC50 measured_value="≤ 4.70"
smiles_structure=CCN1CCN(c2ccc(Nc3cc(-n4c(Nc5c(Cl)c(OC)cc(OC)c5Cl)nc5ccccc54)ncn3)cc2)CC1 quantity=pIC50 measured_value=4.78
